Reference source: PubChem BioAssay (NCI)

- Method Description: NCI Yeast Anticancer Drug Screen. Data for the rad50 strain (AID 155);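 further: 0% = growth of vehicle-only cultures of the same strain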
- Condition Info: S. cerevisiae rad50 strain growth inhibition; at 50.0 µM; stronger effect = higher value
Compounds without any hit were thinned out: in the full panel of roughly 79,000, 15% have a hit.
Metric: growth inhibition (%)

>>> number("COc1ccc2cc1Oc1ccc(cc1)CC1c3cc(c(OC)cc3CCN1C)Oc1c3c(cc4c1C(C2)N(C)CC4)OCO3 (stereo unspecified)")
1.6
>>> number("CCC(C(N)=O)C(C)(C)C (stereo unspecified)")
-0.15
>>> number("CN(C)S(=O)(=O)c1nc2nc[nH]c(=O)c2[nH]1")
-3.2
>>> number("C/C(=N/NC(=S)N1CCCCC1)c1ccccc1O")
-17.4
>>> number("c1ccc(C2=Nc3ccccc3-c3ccccc3N2)cc1")
-2.95
>>> number("CC1(C)CCC23CCC4(C)C(CCC5C6(C)CCC(=O)C(C)(C)C6CCC54C)C2C1OC3 (stereo unspecified)")
-27.4

====

- Method Description: NCI Yeast Anticancer Drug Screen. Data for the bub3 strain (AID 167)
- Condition Info: S. cerevisiae bub3 mutant strain, at 50.0 µM, stronger effect = higher value
- Experimental: Growth inhibition of yeast strains with defined genetic alterations is measured as a screen for potential anti-cancer activity. Selected strains with alterations in DNA damage repair or cell cycle control were exposed to compounds and growth inhibition was measured relative to vehicle treated controls. The strain used in this assay is bub3
Compounds without any hit were thinned out: in the full panel of roughly 79,000, 15% have a hit.
Entries and their growth inhibition values follow.
Metric: growth inhibition (%)

>>> number("CCOC(=O)c1c(N)sc2c1C(C(=O)OCC)CCC2 (centres undefined)")
19.4
>>> number("C=CCNC(=O)CS(=O)(=O)c1ccc(C)cc1")
3.05
>>> number("C=CCNC(=S)NNC(=S)NCC=C")
-16.4
>>> number("C=C1C(=O)O[C@H]2[C@H]1[C@H](OC(=O)/C(C)=C\\C)CC(=C)[C@@H]1[C@H](O)[C@H]3O[C@@]3(C)[C@@]12O")
-5.95
>>> number("O=C(Nc1ccc(Br)cc1)OCC1CC2C=CC1C2 (centres undefined)")
33.9
>>> number("O=C(O)C1CCCCN1/N=C/c1ccccc1 (centres undefined)")
-30.8
>>> number("C/C(=N\\Nc1cc(C)nc2cc3c(cc12)OCO3)c1cn(C)n(-c2ccccc2)c1=O")
12.4
>>> number("COc1ccc(/C(Cl)=C/c2cc(OC)ccc2OC)cc1")
-30.2
>>> number("CNc1ncnc2c(C3OC(CO)C(O)C3O)[nH]nc12 (centres undefined)")
-0.8
>>> number("CC(=O)Nc1ccc(/C=N/NC(=O)c2ccc(O)cc2)cc1")
2.35
>>> number("Cc1nc(C(N)=S)sc1C(=O)CC(=O)C(=O)Nc1c(C(C)C)cccc1C(C)C")
-8.55
>>> number("CCOc1ccc(C(C)(C)c2cc3c(cc2OC)OCO3)cc1")
-21.9
>>> number("CCCCCCC(C)NCC(=O)Nc1ccccc1C (centres undefined)")
59.7
>>> number("O=C(O)/C=C/C(=O)Nc1ccc2c(c1)-c1ccccc1C2=O")
5.15
>>> number("C=C1C(=O)C23CC1C[C@H](OC(C)=O)C2C1(C)C(OC(C)=O)C[C@H](O)C(C)(C)[C@H]1C(O)[C@@H]3OC(C)=O (some centres undefined)")
24.1
>>> number("O=C(NCCCl)Oc1ccccc1")
-4.9
>>> number("C#CCOC(=O)[C@@H](C)c1ccc2cc(OC)ccc2c1")
36.6
>>> number("COc1cc(SC)c(OC)cc1C")
-6
>>> number("CC1CCN(CCOC(=O)c2ccc(OC(C)C)cc2)C1 (centres undefined)")
11.2
>>> number("CCN(CC)Cc1ncccc1O")
-5.8
>>> number("NC(=O)c1csc(CCCCCCc2nc(C(N)=O)cs2)n1")
-21.2
>>> number("CN(C)c1ccc(C=C2c3ccccc3-c3ccccc32)cc1")
0.9
>>> number("O=[N+]([O-])c1ccc(N=C/C=C/Nc2ccc([N+](=O)[O-])cc2)cc1")
6.3
>>> number("O=C1CC2(CCCCC2)CC(=O)N1")
6.9

====

- Method Description: NCI Yeast Anticancer Drug Screen. Data for the mec2-1 strain (AID 157)
- Condition Info: S. cerevisiae mec2-1 strain, at 50.0 µM, stronger effect = higher value
About 79,000 compounds went through this panel and 15% of them were active in at least one assay; those are over-represented in the sample as a whole. Calls of active or inactive are those of the source. No stated cut-off is given here; in the data, active means growth inhibition above about 70%; inactive means the rest.
Entries and their growth inhibition values follow.
Metric: growth inhibition

>>> result("CCCCNC[C@@H](O)[C@H](O)COS(C)(=O)=O")
"-11.7% (inactive)"
>>> result("CSc1nc2nc(C)[nH]c2c(=O)[nH]1")
"5.45% (inactive)"
>>> result("CCOC(=O)C(=[N+]=[N-])C(=O)c1ccc(OS(C)(=O)=O)c(OS(C)(=O)=O)c1")
"-1.05% (inactive)"
>>> result("C/C(=C/c1c(C)c([N+](=O)[O-])c(C)c(C)c1[N+](=O)[O-])C(=O)O")
"38.8% (inactive)"
>>> result("COC1=Cc2nc3ccccc3nc2OC1(C)C")
"3.15% (inactive)"
>>> result("CCCCCCC1(C=O)NC(=O)NC1=O (stereo unspecified)")
"-12% (inactive)"
>>> result("CSSC(SSC)C(SSC)SSC")
"4.2% (inactive)"
>>> result("Clc1cccc2[nH]c(-c3ccncc3)nc12")
"-15.1% (inactive)"
>>> result("CC(=O)NNc1nc(C)c(C(=O)NNC(=O)C(=O)Nc2ccc([N+](=O)[O-])cc2[N+](=O)[O-])s1")
"-5.65% (inactive)"
>>> result("COc1ccc(C2(C=O)NC(=O)NC2=O)cc1 (stereo unspecified)")
"-22.9% (inactive)"
>>> result("COC1OC2COC(c3ccccc3)OC2C(OC(=O)c2ccc([N+](=O)[O-])cc2)C1OS(=O)(=O)c1ccc(C)cc1 (stereo unspecified)")
"17.2% (inactive)"
>>> result("Cc1ncc(C(N)=O)c(N)n1")
"-2.05% (inactive)"
>>> result("CC1CC(C[N+](=O)[O-])CC2(C1)OCCO2 (stereo unspecified)")
"-25.3% (inactive)"
>>> result("O=[N+]([O-])Cc1ccc(Cl)cc1")
"18.4% (inactive)"
>>> result("C=CCOC(=O)C1CC=CCC1C(=O)OCC=C (stereo unspecified)")
"-26.9% (inactive)"
>>> result("CC(=O)OCCSSCCOC(C)=O")
"-26.4% (inactive)"
>>> result("C[Si](C)(Cl)c1ccccc1")
"-27.4% (inactive)"
>>> result("CNC(C#N)c1ccco1 (stereo unspecified)")
"-17.2% (inactive)"
>>> result("NC(=O)c1[nH]cnc1N")
"24.9% (inactive)"
>>> result("Cc1cccc2c(/C=C/c3ccc(N(C)C)cc3)ccnc12")
"-8% (inactive)"
>>> result("Cc1ccc(C(O)c2ccccc2)cc1 (stereo unspecified)")
"6.55% (inactive)"
>>> result("CCCn1c(SCC)c2ccccc2c1-c1nc(F)nc(F)n1")
"-21.8% (inactive)"
>>> result("O=C(NCCCCNCCCNC(=O)c1ccc([N+](=O)[O-])cc1)c1ccc([N+](=O)[O-])cc1")
"4.1% (inactive)"
>>> result("CN(CC(=O)O)c1ncc2c(n1)-c1ccccc1OC2c1ccccc1 (stereo unspecified)")
"19.6% (inactive)"
>>> result("CC(=O)NC1C(OC(C)=O)OC(COC(c2ccccc2)(c2ccccc2)c2ccccc2)C(O)C1OC(C)=O (stereo unspecified)")
"47.5% (inactive)"
>>> result("O=C1C2CCCCC2C(=O)N1O (stereo unspecified)")
"-1.5% (inactive)"

====

- Method Description: NCI Yeast Anticancer Drug Screen. Data for the mec2-1 strain (AID 157)
- Condition Info: S. cerevisiae mec2-1 strain, at 50.0 µM, stronger effect = higher value
Compounds without any hit were thinned out: in the full panel of roughly 79,000, 15% have a hit.
Entries and their growth inhibition values follow.
Metric: growth inhibition (%)

>>> number("CC(=O)Nc1ccc2c(=O)cc[nH]c2n1")
2.9
>>> number("NC(=O)C(Cc1ccc(O)cc1)NC(=O)c1ccccc1 (stereo unspecified)")
-16.6
>>> number("Clc1ccc(N[P+](c2ccccc2)(c2ccccc2)c2ccccc2)cc1.[Cl][Fe]([Cl])([Cl])[Cl]")
12
>>> number("CCOC(=O)Cc1cccnc1N")
-9.45
>>> number("COc1ccc([N+](=O)[O-])c2c1CONC2(C)C(=O)O (stereo unspecified)")
16.2
>>> number("COc1ccc(N=Cc2ccc(OC(=O)c3ccccc3)c(OC)c2)cc1")
0.5
>>> number("COc1c2occc2c(CC(O)C(C)(C)O)c2ccc(=O)oc12 (stereo unspecified)")
-20.7
>>> number("CSc1nc2ccc(NCn3c(=O)sc4cc(Br)ccc43)cc2s1")
38.9
>>> number("NC(Cc1ccccc1)C(=O)NCC(=O)Oc1ccc([N+](=O)[O-])cc1 (stereo unspecified)")
20.4
>>> number("CCn1c(C)[n+](CCCOS(=O)(=O)[O-])c2ccccc21")
-19.1
>>> number("CC(C)=CCCc1ccc2c(c1)C(=O)c1cc3c(cc1C2=O)OCO3")
15.1
